conditions: Ebola virus entry assay, green fluorescence channel
Results with a measured potency or affinity are listed apart.
Categories are defined by ranges of efficacy, namely low: < 20%; medium: ≥ 20% and < 40%; high: ≥ 40%

Could you tell me which band COc1cc(C[C@@H](C)N)c(OC)cc1Br belongs to?
high

Could you tell me which band CCCCc1cc2ccccc2c(OCCN(C)C)n1 belongs to?
low

Could you tell me which band NCCc1ccc(O)c(O)c1 belongs to?
medium

Could you tell me which band CCCCCC(=O)O[C@]1(C(C)=O)CC[C@H]2[C@@H]3CCC4=CC(=O)CC[C@]4(C)[C@H]3CC[C@@]21C belongs to?
high

Could you tell me which band COc1ccc2c(c1OC)C(=O)O[C@@H]2[C@H]1c2c(cc3c(c2OC)OCO3)CCN1C belongs to?
low

Could you tell me which band CC[C@H](NC(C)C)[C@H](O)c1ccc(O)c2[nH]c(=O)ccc12 belongs to?
low

Could you tell me which band CC(=O)Oc1ccc(C(=C2CCCCC2)c2ccc(OC(C)=O)cc2)cc1 belongs to?
low

Could you tell me which band COc1ccc(S(=O)(=O)N2c3ccc(Cl)cc3[C@@](O)(c3ccccc3Cl)[C@H]2C(=O)N2CCC[C@@H]2C(N)=O)cc1OC belongs to?
high

Could you tell me which band Cc1cc2c(OCC(CNC(C)(C)C)OC(=O)c3ccccc3)cccc2[nH]1 (configuration not stated) belongs to?
low

Could you tell me which band CC(C)CCCC(C)N (configuration not stated) belongs to?
low

Could you tell me which band O=C(O)CCC(=O)OC[C@@H](NC(=O)C(Cl)Cl)[C@H](O)c1ccc([N+](=O)[O-])cc1 belongs to?
low

Could you tell me which band COc1cc2c(cc1OC)C(C(C(=O)N(CCc1ccc(OC)c(OC)c1OC)CCc1ccc(OC)c(OC)c1OC)c1ccccc1)=NCC2 (configuration not stated) belongs to?
high

Could you tell me which band Cc1nc2ccccc2n1Cc1ccc(Cl)cc1 belongs to?
high

Could you tell me which band Clc1ccccc1C(c1ccccc1)(c1ccccc1)n1ccnc1 belongs to?
medium

Could you tell me which band c1ccc(CCNc2nc(-c3ccccc3)cs2)cc1 belongs to?
medium

Could you tell me which band CCOc1ccccc1O[C@H](c1ccccc1)[C@H]1CNCCO1 belongs to?
high

Could you tell me which band CC(C(=O)O)c1ccc(CC2CCCC2=O)cc1 (configuration not stated) belongs to?
medium

Could you tell me which band CCOC(=O)OC(C)OC(=O)[C@@H]1N2C(=O)[C@@H](NC(=O)[C@H](N)c3ccccc3)[C@H]2SC1(C)C (some centres not stated) belongs to?
high

Could you tell me which band Sc1ccccc1Cl belongs to?
high

Could you tell me which band CCOC(=O)NNc1nncc2ccccc12 belongs to?
low

Could you tell me which band O=C(CCCCC(=O)Nc1c(I)cc(I)c(C(=O)O)c1I)Nc1c(I)cc(I)c(C(=O)O)c1I belongs to?
low

Taken from PubChem BioAssay (NCATS).
